methodDescription: in vitro
details: human, HepG2 cells
Kindly state CC50 at 72 h for each of the entries shown.
Field: numeric (µM). Do not append units.

Query: Which CC50 at 72 h is listed for COc1cccc2c1C(=O)c1c(O)c3c(c(O)c1C2=O)C[C@@](O)(C(=O)CO)C[C@@H]3O[C@H]1C[C@H](N)[C@H](O)[C@H](C)O1 [Doxorubicin, reference compound] ?
Response: 0.55

Query: Another molecule to look at: COc1cc2c(O[C@@H]3OC[C@@H](OC)[C@H](OC)[C@H]3O)c3c(c(-c4ccc5c(c4)OCO5)c2cc1OC)C(=O)OC3
Response: 5.37

----------
Kindly state viability at 50 µM for each of the entries shown.
Test system: MDA-MB-231 cells
methodDescription: Primary screening, MTT cell viability, MDA-MB-231
details: Homo sapiens, MDA-MB-231, 72 h, read-out: MDA-MB-231 cell viability, %, 50 μM, 72 h, MTT; mean ± SEM
Please format your answer as a value with the unit trailing.

Query: Which viability at 50 µM is listed for COc1cc(O)c2c(c1)O[C@H](c1ccccc1)CC2=O ?
Response: 61.6%

Query: Another molecule to look at: CC1(C)C(=O)C=C[C@]2(C)[C@@H]1CC[C@@]13C[C@@H](CC[C@H]12)C(O)(CO)C3 (stereo partly drawn)
Response: 53.8%

Query: Another molecule to look at: COc1cc(-c2cc(=O)c3c(O)c(OC)c(OC)cc3o2)cc(OC)c1OC
Response: 44.7%

----------
Test system: MCF-7 cells
methodDescription: Secondary screening (dose-response), MTT assay, MCF-7
Format: cell-based, human
details: Homo sapiens, MCF7, 72 h, read-out: IC50 MCF-7
measurementLabel: IC50 (nM)
Field: numeric (nM). Do not append units.

Query: Which IC50 is listed for COc1cc2c(O[C@@H]3OC[C@@H](OC)[C@H](OC)[C@H]3O)c3c(c(-c4ccc5c(c4)OCO5)c2cc1OC)C(=O)OC3 ?
Response: 540

----------
Kindly state viability at 50 µM for each of the entries shown.
System: MCF-7 cells
methodDescription: Primary screening, MTT cell viability, MCF-7
details: Homo sapiens, MCF7, 72 h, read-out: MCF-7 cell viability, %, 50 μM, 72 h, MTT; mean ± SEM
Field: numeric (%). Do not append units.

Query: Which viability at 50 µM is listed for COc1cc(-c2cc(=O)c3c(O)c(OC)c(OC)cc3o2)cc(OC)c1OC ?
Response: 63.1

Query: Another compound to look at: O=C1C[C@@H](c2ccccc2)Oc2cc(O)cc(O)c21
Response: 95.6

Query: Another compound to look at: C[C@H]1C(=O)CC[C@@H]2[C@]1(C)CC[C@H]1[C@@]2(C)CC[C@@]2(C)[C@@H]3CC(C)(C)CC[C@]3(C)CC[C@]12C
Response: 79.2

Query: Another compound to look at: O=c1cc(-c2ccccc2)oc2cc(O)cc(O)c12
Response: 76.7

Query: Another compound to look at: CC(=O)c1ccc(O)cc1 [Compound 11, 4-hydroxyacetophenone]
Response: 85.2

Query: Another compound to look at: COc1cccc2c1C(=O)c1c(O)c3c(c(O)c1C2=O)C[C@@](O)(C(=O)CO)C[C@@H]3O[C@H]1C[C@H](N)[C@H](O)[C@H](C)O1 [Doxorubicin, reference compound]
Response: 4.02

Query: Another compound to look at: COc1cc2c(O[C@@H]3OC[C@@H](OC)[C@H](OC)[C@H]3O)c3c(c(-c4ccc5c(c4)OCO5)c2cc1OC)C(=O)OC3
Response: 1.72

Query: Another compound to look at: COc1cc(O)c2c(c1)O[C@H](c1ccccc1)CC2=O
Response: 88.5

Query: Another compound to look at: CC1(C)C(=O)C=C[C@]2(C)[C@@H]1CC[C@@]13C[C@@H](CC[C@H]12)C(O)(CO)C3 (stereo partly shown)
Response: 72.7

Query: Another compound to look at: C=C[C@@]1(C)C[C@H]2C[C@H](O)[C@]3(O)[C@@H](CCCC3(C)C)[C@]2(C)CC1=O
Response: 77.7

Cited source: paper PMC12662241
